Source of measurements: ChEMBL document CHEMBL1949525

# TARGET UNDER TEST: P2Y purinoceptor 6 (Rattus norvegicus) (UniProt Q63371)
# Sequence (Q63371 whole entry): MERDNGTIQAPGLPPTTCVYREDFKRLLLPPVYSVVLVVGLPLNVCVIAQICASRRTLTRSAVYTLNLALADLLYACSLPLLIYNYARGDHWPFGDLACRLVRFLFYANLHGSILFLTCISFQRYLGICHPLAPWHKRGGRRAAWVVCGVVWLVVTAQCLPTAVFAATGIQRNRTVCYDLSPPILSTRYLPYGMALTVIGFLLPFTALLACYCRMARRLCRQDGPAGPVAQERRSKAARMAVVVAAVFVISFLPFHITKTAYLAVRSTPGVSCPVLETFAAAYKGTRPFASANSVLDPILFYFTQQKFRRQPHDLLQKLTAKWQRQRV
# RUN DESCRIPTION: Antagonist activity at rat P2Y purinoceptor 6 expressed in human 1321N1 cells assessed as inhibition of UDP-induced increase in intracellular calcium concentration by spectrofluorimetry
# Type: functional, cell-based
Activity calls are given as the source filed them. No cut-off for these calls is given here.
READOUT KIND: Activity

compound="BP(=O)(OP(=O)(O)OC[C@H]1O[C@@H](n2cnc3c(N)ncnc32)[C@H](O)[C@@H]1O)OP(=O)(O)OP(=O)(O)OC[C@H]1O[C@@H](n2ccc(=O)[nH]c2=O)[C@H](O)[C@@H]1O.CCCCN(CCCC)CCCC.CCCCN(CCCC)CCCC.CCCCN(CCCC)CCCC.CCCCN(CCCC)CCCC (stereo in doubt; 8B)" result=inactive
compound="BP(=O)(OP(=O)(O)OC[C@H]1O[C@@H](n2ccc(=O)[nH]c2=O)[C@H](O)[C@@H]1O)OP(=O)(O)OP(=O)(O)OC[C@H]1O[C@@H](n2cnc3c(N)ncnc32)[C@H](O)[C@@H]1O.CCCCN(CCCC)CCCC.CCCCN(CCCC)CCCC.CCCCN(CCCC)CCCC.CCCCN(CCCC)CCCC (stereo in doubt; 9B)" result=inactive
compound="BP(=O)(OC[C@H]1O[C@@H](n2ccc(=O)[nH]c2=O)[C@H](O)[C@@H]1O)OP(=O)(O)OP(=O)(O)OP(=O)(O)OC[C@H]1O[C@@H](n2ccc(=O)[nH]c2=O)[C@H](O)[C@@H]1O.CCCCN(CCCC)CCCC.CCCCN(CCCC)CCCC.CCCCN(CCCC)CCCC.CCCCN(CCCC)CCCC (stereo in doubt; 13B)" result=inactive

* * *

# TARGET UNDER TEST: P2Y purinoceptor 4 (Homo sapiens)
# Sequence (P51582 whole entry): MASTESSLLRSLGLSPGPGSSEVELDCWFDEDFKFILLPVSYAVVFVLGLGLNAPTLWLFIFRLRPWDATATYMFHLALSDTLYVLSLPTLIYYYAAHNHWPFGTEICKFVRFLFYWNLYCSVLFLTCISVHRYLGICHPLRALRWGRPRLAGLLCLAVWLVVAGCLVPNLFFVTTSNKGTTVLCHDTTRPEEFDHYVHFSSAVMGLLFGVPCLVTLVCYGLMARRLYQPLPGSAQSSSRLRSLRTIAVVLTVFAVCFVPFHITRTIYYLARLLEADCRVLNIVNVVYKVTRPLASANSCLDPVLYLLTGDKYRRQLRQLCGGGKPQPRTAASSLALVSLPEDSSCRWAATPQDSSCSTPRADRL
# RUN DESCRIPTION: Antagonist activity at human P2Y purinoceptor 4 expressed in human 1321N1 cells assessed as inhibition of UTP-induced increase in intracellular calcium concentration by spectrofluorimetry
# Format: functional, cell-based
The source made the active and inactive calls. No cut-off for these calls is given here.
READOUT KIND: Activity

compound="BP(=O)(OC[C@H]1O[C@@H](n2ccc(=O)[nH]c2=O)[C@H](O)[C@@H]1O)OP(=O)(O)OP(=O)(O)OP(=O)(O)OC[C@H]1O[C@@H](n2ccc(=O)[nH]c2=O)[C@H](O)[C@@H]1O.CCCCN(CCCC)CCCC.CCCCN(CCCC)CCCC.CCCCN(CCCC)CCCC.CCCCN(CCCC)CCCC (stereo in doubt; 13A)" target_under_test="P2Y purinoceptor 4 (Homo sapiens)" result=inactive
compound="BP(=O)(OC[C@H]1O[C@@H](n2cnc3c(N)ncnc32)[C@H](O)[C@@H]1O)OP(=O)(O)OP(=O)(O)OP(=O)(O)OC[C@H]1O[C@@H](n2cnc3c(N)ncnc32)[C@H](O)[C@@H]1O.CCCCN(CCCC)CCCC.CCCCN(CCCC)CCCC.CCCCN(CCCC)CCCC.CCCCN(CCCC)CCCC (stereo in doubt; 12B)" target_under_test="P2Y purinoceptor 4 (Homo sapiens)" result=inactive
compound="BP(=O)(OC[C@H]1O[C@@H](n2ccc(=O)[nH]c2=O)[C@H](O)[C@@H]1O)OP(=O)(O)OP(=O)(O)OC[C@H]1O[C@@H](n2ccc(=O)[nH]c2=O)[C@H](O)[C@@H]1O.CCCCN(CCCC)CCCC.CCCCN(CCCC)CCCC.CCCCN(CCCC)CCCC (stereo in doubt; 11A)" target_under_test="P2Y purinoceptor 4 (Homo sapiens)" result=inactive
